Molecular target: Glucocorticoid receptor (Homo sapiens, UniProt P04150)
Sequence (P04150 whole entry): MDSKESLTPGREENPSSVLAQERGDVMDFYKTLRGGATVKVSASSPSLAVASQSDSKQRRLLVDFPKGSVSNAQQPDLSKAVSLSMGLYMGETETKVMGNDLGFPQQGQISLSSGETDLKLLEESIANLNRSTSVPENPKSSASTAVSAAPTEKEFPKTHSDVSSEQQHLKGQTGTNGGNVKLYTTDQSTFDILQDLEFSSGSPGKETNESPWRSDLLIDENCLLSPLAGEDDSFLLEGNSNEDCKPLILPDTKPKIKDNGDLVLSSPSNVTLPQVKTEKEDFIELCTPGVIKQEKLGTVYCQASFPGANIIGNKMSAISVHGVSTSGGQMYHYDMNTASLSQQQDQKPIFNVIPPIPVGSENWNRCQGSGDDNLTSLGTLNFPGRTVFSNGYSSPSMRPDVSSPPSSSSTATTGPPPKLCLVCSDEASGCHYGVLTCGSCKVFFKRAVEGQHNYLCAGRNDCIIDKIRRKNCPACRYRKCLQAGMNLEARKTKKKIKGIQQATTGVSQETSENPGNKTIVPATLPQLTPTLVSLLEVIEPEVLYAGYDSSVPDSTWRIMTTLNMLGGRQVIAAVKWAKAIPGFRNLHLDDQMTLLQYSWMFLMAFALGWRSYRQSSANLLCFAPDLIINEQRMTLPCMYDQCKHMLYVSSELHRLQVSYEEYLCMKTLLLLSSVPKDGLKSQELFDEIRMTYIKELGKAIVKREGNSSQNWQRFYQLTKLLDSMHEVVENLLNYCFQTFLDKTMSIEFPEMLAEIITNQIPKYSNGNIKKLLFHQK
Experiment: Transrepression activity at GR in human SW1353 cells assessed as suppression of NFkappaB-induced IL8 production
Type: cell-based
measured.attribute: pIC50
Answers are plain numbers, as −log10 of the molar value.

Problem: What value of measured pIC50 is listed for C=CCC12CC[C@](O)(C#CC)C[C@H]1CCc1cc(O)ccc12 (single isomer, unassigned) ?
Result: 7.47

###

biological target: Glucocorticoid receptor (Homo sapiens, UniProt P04150); assay: Binding affinity to human glucocorticoid receptor
measured.attribute: pIC50
Answers are plain numbers, as −log10 of the molar value.

Sample records with pIC50:
CC#C[C@]1(O)C[C@H]2CCc3cc(O)ccc3[C@]2(CC)C[C@@H]1O | 7.46
CC#C[C@@]1(O)CC[C@@]2(CC)c3ccc(O)cc3CC[C@@H]2C1 | 8.25
CC#C[C@@]1(O)CC[C@@]2(CC)c3ccc(OCc4ccncc4)cc3CC[C@@H]2C1 | 8.52
CC#C[C@]1(O)C[C@H]2CCc3cc(OCc4cccnc4C)ccc3[C@]2(CC)C[C@@H]1O | 8.48
CC[C@@]12C[C@H](O)[C@](O)(c3ccccc3)C[C@H]1CCc1cc(OCc3cccnc3C)ccc12 | 8.82
CC#C[C@@]1(O)CC[C@@]2(/C=C/C)c3ccc(O)cc3CC[C@@H]2C1 | 8.46
CC#C[C@@]1(O)CC[C@@]2(CC)c3ccc(OCc4cccnc4C)cc3CC[C@@H]2C1 | 8.64
CC[C@@]12C[C@H](O)[C@H](c3ccccc3)C[C@H]1CCc1cc(O)ccc12 | 8.89

Below: the item to evaluate.
Problem: What value of measured pIC50 is listed for CC[C@@]12CC[C@](O)(c3ccccc3)C[C@H]1CCc1cc(O)ccc12 ?
Result: 7.68

###

molecular target: UniProtKB P06401
Sequence (P06401 whole entry): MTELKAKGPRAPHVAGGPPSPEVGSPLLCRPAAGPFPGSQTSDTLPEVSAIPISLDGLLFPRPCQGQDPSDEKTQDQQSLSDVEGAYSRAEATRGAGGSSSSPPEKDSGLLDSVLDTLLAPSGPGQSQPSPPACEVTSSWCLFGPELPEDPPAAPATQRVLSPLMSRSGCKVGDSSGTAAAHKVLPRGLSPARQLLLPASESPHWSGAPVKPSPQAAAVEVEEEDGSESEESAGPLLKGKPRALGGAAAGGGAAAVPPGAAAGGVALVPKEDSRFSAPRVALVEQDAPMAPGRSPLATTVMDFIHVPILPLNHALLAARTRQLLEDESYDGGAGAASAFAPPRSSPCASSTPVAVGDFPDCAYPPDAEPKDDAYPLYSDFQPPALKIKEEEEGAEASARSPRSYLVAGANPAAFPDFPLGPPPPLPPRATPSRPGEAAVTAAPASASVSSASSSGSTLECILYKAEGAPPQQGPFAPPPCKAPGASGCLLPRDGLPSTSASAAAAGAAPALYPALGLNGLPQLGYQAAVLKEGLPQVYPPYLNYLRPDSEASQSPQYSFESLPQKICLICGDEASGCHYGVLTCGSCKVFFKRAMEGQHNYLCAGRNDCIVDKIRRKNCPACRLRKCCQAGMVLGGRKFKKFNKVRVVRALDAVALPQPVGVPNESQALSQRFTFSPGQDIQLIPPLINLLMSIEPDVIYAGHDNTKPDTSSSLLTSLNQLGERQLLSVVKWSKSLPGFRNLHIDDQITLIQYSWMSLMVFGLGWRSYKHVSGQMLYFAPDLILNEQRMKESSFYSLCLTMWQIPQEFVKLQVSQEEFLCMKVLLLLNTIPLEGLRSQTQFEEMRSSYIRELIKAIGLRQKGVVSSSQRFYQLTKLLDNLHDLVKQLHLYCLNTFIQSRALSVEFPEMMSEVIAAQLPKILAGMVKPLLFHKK
Could you please report measured pIC50 for the items listed next?
One number for each entry, as −log10 of the molar value.

// input: 2 compounds below; output: pIC50 for each
1. CC#C[C@@]1(O)CC[C@@]2(CC)c3ccc(O)cc3CC[C@@H]2C1
2. C=CCC12CC[C@](O)(C#CC)C[C@H]1CCc1cc(O)ccc12 (single isomer, unassigned)

Result:
1. 5.59
2. 5.96

###

Target: UniProt:P03372
Sequence (P03372 whole entry): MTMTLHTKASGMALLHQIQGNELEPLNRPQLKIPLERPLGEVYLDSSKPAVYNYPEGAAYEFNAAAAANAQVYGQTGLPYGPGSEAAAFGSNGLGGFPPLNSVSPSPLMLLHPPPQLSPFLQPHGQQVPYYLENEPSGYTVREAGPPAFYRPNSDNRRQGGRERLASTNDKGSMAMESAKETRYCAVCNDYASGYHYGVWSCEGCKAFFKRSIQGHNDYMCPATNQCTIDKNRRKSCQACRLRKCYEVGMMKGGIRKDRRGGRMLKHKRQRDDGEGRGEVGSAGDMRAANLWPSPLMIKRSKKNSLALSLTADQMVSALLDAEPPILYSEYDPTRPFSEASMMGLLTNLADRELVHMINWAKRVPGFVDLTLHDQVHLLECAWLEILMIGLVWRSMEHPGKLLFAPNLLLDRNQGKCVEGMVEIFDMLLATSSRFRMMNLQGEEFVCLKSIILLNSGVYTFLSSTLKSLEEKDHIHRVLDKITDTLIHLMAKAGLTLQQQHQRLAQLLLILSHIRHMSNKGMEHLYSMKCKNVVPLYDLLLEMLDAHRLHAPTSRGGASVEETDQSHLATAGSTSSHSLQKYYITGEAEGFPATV
Could you please report measured pIC50 for the items listed next?
Numbers only, as −log10 of the molar value.

Sample records with pIC50:
C=CCC12CC[C@](O)(C#CC)C[C@H]1CCc1cc(O)ccc12 (single isomer, unassigned) | 7.03
CC#C[C@@]1(O)CC[C@@]2(CC)c3ccc(O)cc3CC[C@@H]2C1 | 7.05

Problem: What value of measured pIC50 is listed for CC#C[C@@]1(O)CC[C@@]2(CC)c3ccc(OCc4ccncc4)cc3CC[C@@H]2C1 ?
Result: 6.17
